conditions: human;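 also: human cytolytic liver injury, shown by histopathology or by a ratio above 5 of peak ALT or AST elevation to alkaline phosphatase elevation, value counts indexed references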
Where a SMILES comes first, the peptide text is derived from it. Bridges are numbered along the chain shown (N, C = ends). [ ]: non-standard residue; d: D form. The star is where a group is joined. Threoninol(2S,3R) = C[C@@H](O)[C@H](CO)N*
Reported Hepatotoxicity (cytolytic) values follow for various compounds
Just the number, please, no unit after it.

Check out these entries, answers already filled in.
{"Compound": "CCCCCCCCCCC[C@@H](C[C@@H]1OC(=O)[C@H]1CCCCCC)OC(=O)[C@H](CC(C)C)NC=O", "Numeric Result": 1}
{"Compound": "Cc1cccc(C)c1OCC(=O)N[C@@H](Cc1ccccc1)[C@@H](O)C[C@H](Cc1ccccc1)NC(=O)[C@H](C(C)C)N1CCCNC1=O", "Numeric Result": 2}
{"Compound": "C[C@@H](O)[C@H](CO)NC(=O)[C@@H]1CSSC[C@H](NC(=O)[C@H](N)Cc2ccccc2)C(=O)N[C@@H](Cc2ccccc2)C(=O)N[C@H](Cc2c[nH]c3ccccc23)C(=O)N[C@@H](CCCCN)C(=O)N[C@@H]([C@@H](C)O)C(=O)N1 (H-[dF]CF[dW]KTC-{Threoninol(2S,3R)}; disulfide 2-7)", "Numeric Result": 3}

Let us move to another entry and its Hepatotoxicity (cytolytic).
[Q] Read the entry CCN1CCC[C@H]1CNC(=O)c1c(OC)ccc(Br)c1OC [REMOXIPRIDE] and write its reported Hepatotoxicity (cytolytic).
[A] 0

---

conditions: human
Measure: Hepatotoxicity (cytolytic)
Just the number, please, no unit after it.

{"Compound": "NC(=O)CCC/N=C(\\c1ccc(Cl)cc1)c1cc(F)ccc1O [PROGABIDE]", "Hepatotoxicity (cytolytic)": 4}
{"Compound": "CN[C@H](CC(C)C)C(=O)N[C@H]1C(=O)N[C@@H](CC(N)=O)C(=O)N[C@H]2C(=O)N[C@H]3C(=O)N[C@H](C(=O)N[C@H](C(=O)O)c4cc(O)cc(O)c4-c4cc3ccc4O)[C@H](O)c3ccc(c(Cl)c3)Oc3cc2cc(c3O[C@@H]2O[C@H](CO)[C@@H](O)[C@H](O)[C@H]2O[C@H]2C[C@](C)(N)[C@H](O)[C@H](C)O2)Oc2ccc(cc2Cl)[C@H]1O", "Hepatotoxicity (cytolytic)": 1}
{"Compound": "Nc1nc2ccc(OC(F)(F)F)cc2s1", "Hepatotoxicity (cytolytic)": 5}
{"Compound": "COc1cc(C(=O)NCc2ccc(OCCN(C)C)cc2)cc(OC)c1OC [TRIMETHOBENZAMIDE]", "Hepatotoxicity (cytolytic)": 2}
{"Compound": "CO[C@@H](/C(C)=C/C=C/C(C)=C/c1coc(C)n1)[C@@H](C)[C@@H]1C[C@H](O)[C@@]2(C)O[C@@H]2/C=C/[C@@H](C)[C@H]2C[C@H](CC(=O)O2)C[C@@H]2O[C@H]2C(=O)O1", "Hepatotoxicity (cytolytic)": 0}

[Q] Read the entry CC(=O)[C@H]1CC[C@H]2[C@@H]3CC[C@@H]4C[C@H](O)CC[C@]4(C)[C@H]3CC[C@]12C and write its reported Hepatotoxicity (cytolytic).
[A] 0

[Q] Read the entry CN(C)[C@@H]1C(O)=C(C(N)=O)C(=O)[C@@]2(O)C(O)=C3C(=O)c4c(O)ccc(Cl)c4[C@@H](O)[C@H]3C[C@@H]12 and write its reported Hepatotoxicity (cytolytic).
[A] 1

[Q] Read the entry CC[C@@H](CO)NC(=O)[C@@H]1C=C2c3cccc4[nH]cc(c34)C[C@H]2N(C)C1 and write its reported Hepatotoxicity (cytolytic).
[A] 0

[Q] Read the entry Cc1[nH]c(=O)c(C#N)cc1-c1ccncc1 and write its reported Hepatotoxicity (cytolytic).
[A] 0

[Q] Read the entry CN1CCN2c3ncccc3Cc3ccccc3C2C1 (centres undefined) and write its reported Hepatotoxicity (cytolytic).
[A] 1
